Each recorded value in this set is attributed to ChEMBL document CHEMBL4513216.

System: Plasmodium berghei
assay_comment: Screen against P. berghei liver stage (PbLuc), transformed with Luciferase, at 2uM
Assay type: functional, HepG2
conditions: tested at 2 uM
Among all 68,000 compounds or so, about 2,700 (4%) showed an effect of 50% or more. Only a selection was taken, and strong results are over-represented in it overall.
reported_property: INHIBITION (%)
State the answer as a number, implicitly in %.

Example entries and their recorded answers appear below.
{"columns": ["molecule", "INHIBITION, %"],
 "data": [
  ["CNC(=O)[C@@H](C1CCCCC1)N1CCC[C@H]1C(=O)N(C)CCN(C)C", 27.65],
  ["O=C(CN1CCCC1c1nc2cc(F)ccc2[nH]1)NCc1ccccn1 (configuration not stated)", 57.75],
  ["Fc1ccc2[nH]c(C3CCCN3Cc3c[nH]cn3)nc2c1 (configuration not stated)", 19.59],
  ["Cc1cc(C(=O)N2CCCCC2c2nc3cc(F)ccc3[nH]2)no1 (configuration not stated)", 33.92],
  ["O=C(c1cnc(-c2cccs2)s1)N1CCCC(n2cccn2)C1 (configuration not stated)", 42.18]
]}

-- ask Using the record for Cn1c(=O)[nH]c(=O)c2c1nc1n2CC(c2ccc(Cl)cc2)O1 (configuration not stated) , report its INHIBITION.
-- reply 13.01

-- ask Endpoint output: INHIBITION of O=C(Cc1ccon1)NC1CCCN(c2ccccc2F)C1=O (configuration not stated) . Value?
-- reply 28.73

-- ask Return reported INHIBITION; argument: COCCN1CCN(c2ccc(CN(C)C)cn2)CC1
-- reply -0.85

-- ask # query: INHIBITION of entry O=C(C1CC1)N1CCC2(CC1)OCCO2
-- reply 56.99

* * *

System: Plasmodium berghei
assay_comment: Screen against P. berghei liver stage (PbLuc), transformed with Luciferase, at 2uM
Assay type: functional, HepG2
conditions: tested at 2 uM
About 2,700 (4%) of roughly 68,000 compounds showed an effect of 50% or more. This is one part of a sample in which strong results are shown more often than they occur.
# INHIBITION listing for each entry below
The answer is to be given in %; state only the numeric part.

{"columns": ["compound", "INHIBITION / %"],
 "data": [
  ["COCc1nc(-c2ccnc(N3CCNCC3)n2)no1", -8.07]
]}

-- ask // INHIBITION lookup, key: O=C1O[C@@H]2CN(C3CCOCC3)C[C@@H]2N1CCCc1ccc(F)cc1
-- reply -23.46

-- ask Can you look up the measured INHIBITION of CO[C@@H]1CCN(Cc2nccs2)C[C@@H]1Cc1cccc(C)c1 for me?
-- reply 10.17

-- ask Suppose we examine the compound COC1COC2(CCN(Cc3ccc4ccccc4n3)CC2)C1 (stereo unspecified) ; what INHIBITION value has been reported?
-- reply -0.18

-- ask Fill blank: measured INHIBITION of the compound Cc1ccc(OCC(O)COC2CCOCC2)c(Cl)c1 (stereo unspecified) is ____.
-- reply -2.35

-- ask What does the record list as INHIBITION for CN(CC1CCCO1)C1CCN(CCc2ccccn2)CC1 (stereo unspecified) ?
-- reply 14.82

-- ask Give the measured INHIBITION of COc1ccc(CC(=O)N2CCCC2c2nc(C)c(C)c(O)n2)cc1 (stereo unspecified) .
-- reply 29.48

* * *

Quick list: INHIBITION per entry.
Tested on: Plasmodium berghei
assay_comment: Screen against P. berghei liver stage (PbLuc), transformed with Luciferase, at 2uM
Type: functional, HepG2
conditions: tested at 2 uM
In all, about 68,000 compounds went through this assay and about 2,700 (4%) showed an effect of 50% or more. Only a selection was taken, and strong results are over-represented in it overall.
All answers are understood in %, so give the number only.

{"columns": ["molecule", "INHIBITION (%)"],
 "data": [
  ["CNC(=O)CN1CCCC12CCN(C(=O)c1ccoc1)CC2", 23.09]
]}

Attention now turns to another entry.
-- ask So what's the measured INHIBITION for this one? COCCCN1CCN(c2ncnc3nc(C)cc(C)c23)CC1
-- reply 19.27

* * *

Consider the following compounds and their measured INHIBITION readings.
System: Plasmodium berghei
assay_comment: Screen against P. berghei liver stage (PbLuc), transformed with Luciferase, at 2uM
Assay type: functional, HepG2
conditions: tested at 2 uM
Out of some 68,000 compounds screened, about 2,700 (4%) showed an effect of 50% or more. Shown is part of a subset that was picked to be rich in strong results.
Units required after the number.

Recorded results for 5 compounds are shown here.
{"columns": ["compound", "tested_target", "reported_property", "observed"],
 "data": [
  ["O=C1CCC2(CCCN(CCc3ccccc3)C2)N1Cc1cccnc1 (stereo unspecified)", "Plasmodium berghei", "INHIBITION", "42.18%"],
  ["CCc1nc(C2CCCN2C(=O)c2ccc(N(C)C)nn2)no1 (stereo unspecified)", "Plasmodium berghei", "INHIBITION", "5.91%"],
  ["CNC(=O)CN1C(=O)CCC12CCCN(CCc1ccccc1)C2 (stereo unspecified)", "Plasmodium berghei", "INHIBITION", "0.2%"],
  ["CCc1nc(C2CCCN2C(=O)CCc2c(C)noc2Cl)no1 (stereo unspecified)", "Plasmodium berghei", "INHIBITION", "51.94%"],
  ["COCCN1C(=O)CCC12CCCN(Cc1ccccc1F)C2 (stereo unspecified)", "Plasmodium berghei", "INHIBITION", "7.88%"]
]}

Next compound, please.
-- ask Test system Plasmodium berghei; read-out INHIBITION; what value for CS(=O)(=O)NCc1ncn2c1CN(CCN1CCCC1)CCC2 ?
-- reply 10.64%

* * *

Tested on: Plasmodium berghei
assay_comment: Screen against P. berghei liver stage (PbLuc), transformed with Luciferase, at 2uM
Type: functional, HepG2
conditions: tested at 2 uM
About 2,700 (4%) of roughly 68,000 compounds showed an effect of 50% or more. This is one part of a sample in which strong results are shown more often than they occur.
List of INHIBITION values.
Write it as a number; the unit % goes unstated.

{"columns": ["compound", "output_unit", "INHIBITION"],
 "data": [
  ["O=C(Cc1cccs1)N1CCCC(CNS(=O)(=O)Cc2ccccc2)C1 (configuration not stated)", "%", -40.36],
  ["CC(NC(=O)CCn1cccn1)c1cccs1 (configuration not stated)", "%", -38.35],
  ["Cc1ncc(CNCC(C)O)c2cc(C(=O)c3ccc(Br)cc3)oc12 (configuration not stated)", "%", -4.01],
  ["COc1cccc(-c2ccc3nc(C4CCN(C(C)=O)CC4)nn3c2)c1", "%", -3.4],
  ["CCCn1nccc1NC(=O)CN1CCc2c(nc(C3CC3)n2C)C1", "%", 49.6],
  ["CC(C)N1[C@@H](C(=O)NCC2CC2)C[C@@H]2CN(Cc3ccco3)C[C@@H]21", "%", 28.2],
  ["COc1ncccc1CNCc1c(C)nn(C)c1N(C)C", "%", 11.2],
  ["O=C([C@H]1C[C@@H]2CCN(c3cccc(F)c3)C[C@H]2O1)N1CCCC1", "%", 39.51]
]}

Moving on to the next compound.
-- ask Given the entry Cc1nnc(NC(=O)CN2CCc3c(nc(C(C)C)n3C)C2)s1 , report its measured INHIBITION.
-- reply 22.63

* * *

System: Plasmodium berghei
assay_comment: Screen against P. berghei liver stage (PbLuc), transformed with Luciferase, at 2uM
Assay type: functional, HepG2
conditions: tested at 2 uM
Among all 68,000 compounds or so, about 2,700 (4%) showed an effect of 50% or more. The entries come from a sample that favours strong results as a whole.
reported_property: INHIBITION (%)
Write it as a number; the unit % goes unstated.

Worked set:
{"columns": ["compound", "reported_property", "observed"],
 "data": [
  ["O=c1[nH]c2nc(NCC3CCCO3)ncc2c(=O)n1-c1cccc(F)c1 (stereo unspecified)", "INHIBITION", 61.06],
  ["Cc1noc(C)c1-c1ccc(C2CCCN2C(=O)c2ccncn2)nc1 (stereo unspecified)", "INHIBITION", 5.15],
  ["O=c1[nH]c2nc(N3CCCC3)ncc2c(=O)n1-c1cccc(F)c1", "INHIBITION", 22.51],
  ["COCCNC(=O)CN(C)C(C)c1nc(C)no1 (stereo unspecified)", "INHIBITION", -4.01],
  ["CCc1cnc(CN2C(=O)CC3(CCSC3)C2=O)o1 (stereo unspecified)", "INHIBITION", 15.39]
]}

-- ask What does the data say about its INHIBITION? Entry: Clc1cccc(C[C@@H]2NCCC[C@@H]2Nc2ccccc2)c1
-- reply 33.95

-- ask What value of INHIBITION has been recorded for this entry: O=S(=O)(Cc1ccccc1CN1CC[C@H](CO)[C@H](O)C1)c1ccccc1
-- reply 48.21

-- ask Please report the recorded INHIBITION for CCc1nnsc1C(=O)N1CCCC1c1c(C)nn(C)c1OC (stereo unspecified) .
-- reply -12.75

-- ask # lookup: INHIBITION of O=c1[nH]c2nc(NCC3CCCO3)ncc2c(=O)n1-c1ccc(F)cc1 (stereo unspecified)
-- reply 24.34

-- ask Look at this compound and give its reported INHIBITION. N#Cc1cc(F)c(N2CCC(NS(=O)(=O)c3cccs3)CC2)c(F)c1
-- reply 24.17

-- ask Could you share which INHIBITION value was measured for CNC(=O)[C@H]1C[C@H]2OCC[C@H]2N(Cc2cccc3ccccc23)C1 ?
-- reply 16.6
